Where these numbers come from: patent US20220306762A1

- target_under_test: T1, His-tagged mouse CD38 (ACRO Biosystems CD8-M5223) (mouse, UniProt P56528 45-304)
- T1 construct: bought protein; used for ELISA coating and as SPR analyte; also called Murine; not shown: His tag
- T1 sequence (looked up): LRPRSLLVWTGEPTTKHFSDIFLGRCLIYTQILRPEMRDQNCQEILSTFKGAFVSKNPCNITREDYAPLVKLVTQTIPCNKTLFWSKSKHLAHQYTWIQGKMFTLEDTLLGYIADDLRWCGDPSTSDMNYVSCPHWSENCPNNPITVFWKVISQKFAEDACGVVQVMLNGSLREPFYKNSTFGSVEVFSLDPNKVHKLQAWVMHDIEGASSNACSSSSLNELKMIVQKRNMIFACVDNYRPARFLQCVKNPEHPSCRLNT
- test_description: ELISA, 1 ug/ml scFv-Fc, coated His-tagged CD38
recorded_metric: ELISA signal

binder	recorded_metric	measurement
40769p2.2.A9 scFv-Fc (scFv, V domains shown, scFv-Fc) VH: EVQLLESGGGLVQPGGSLRLSCTASGITFSRFNMFWVRQAPGKGLEFVASIRDDGSWTYYADSVKGQFTISRDNSKNTLYLQMNSLRAEDTAVYYCAKDYNSKDFIYHYVMDVWGQGTTVTVSS VL: QSVLTQPPSASGTPGQRVTISCSGRNSNIGNNVVNWYQQLPGTAPKLLIYRNQERPSGVPDRFSGSKSGTSASLAISGLQSEDEADYYCSTWDDSLNGWVFGGGTKLTVL	ELISA signal	0.044
40769p2.2.D9 scFv-Fc (scFv, V domains shown, scFv-Fc) VH: EVQLLESGGGLVQPGGSLRLSCAGSGFTFSDYWMSWVRQAPGKGLEWVSTISITAGIIYYADSVKGRFTISRDNSKNTLYLQMNSLRAEDTAVYYCAKDNWNDYYGMDVWGQGTTVTVSS VL: QSVLTQPPSASGTPGQRVTVSCSGSRSNIRDNYVYWYQQVPGTAPKLLIYKDDQRPSGVPDRFSGSKSGTSASLVISGLQSEDEADYYCATWDGSLNARVFGGGTKLTVL	ELISA signal	0.043
